ASSAY EXPLANATION: Caspase-3/7 induction in HepG2 cells by small molecules, qHTS assay (AID 1346978); also: nearly all actives have a fitted effect of over 15% in size
TEST SETTINGS: HepG2 caspase-3/7 activation, Caspase-Glo luminescence, 17 h; series mostly up to 92.4 µM
Inconclusive results are not listed. Calls of active or inactive are those of the source. Calls follow the shape of the dose curve; as a rule, active = well fitted activation curve with a large enough effect in the repeat runs; inconclusive = weak or mixed curves; inactive = flat fitted curve, though single readings scatter.
Pick one: active, inactive

Reference set, count: 3
INSERT INTO measurements (smiles_repr, assigned_category) VALUES
  ('Cc1onc(-c2c(Cl)cccc2Cl)c1C(=O)N[C@@H]1C(=O)N2[C@@H]1SC(C)(C)[C@@H]2C(=O)O', 'inactive'),
  ('CCCCCCCCCOC(=O)c1ccc(O)cc1', 'active'),
  ('COc1ccc(C(=O)/C(Br)=C\C(=O)O)cc1', 'inactive');

## Input Tell me the recorded outcome of this test for "CCCCCOc1ccccc1/C(=C\SC)n1ccnc1" .
## Output inactive

## Input Tell me the recorded outcome of this test for "NC(=O)C1(N2CCCCC2)CCN(CCCN2c3ccccc3CCc3ccc(Cl)cc32)CC1" .
## Output active

## Input Tell me the recorded outcome of this test for "CCCCN1CCCC[C@H]1C(=O)Nc1c(C)cccc1C" .
## Output inactive

* * *

ASSAY EXPLANATION: A CellTox Green Cytotoxicity Assay to monitor cytotoxicity in HEK293 cells - 0 hour (AID 1224869); also: nearly all actives have a fitted effect of over 50% in size
TEST SETTINGS: CellTox Green fluorescence; series mostly up to 76.8 µM
Active and inactive are the calls of the source. Calls follow the shape of the dose curve; as a rule, active = well fitted activation curve with a large enough effect in the repeat runs; inconclusive = weak or mixed curves; inactive = flat fitted curve, though single readings scatter.
Pick one: YES = active, NO = inactive

Reference set, count: 6
INSERT INTO results (compound, assigned_category) VALUES
  ('Cc1ccc(O)c2ncccc12', 'NO'),
  ('CCCCCCCCCCCCCCCC(=O)OC[C@H](O)[C@H]1OC(=O)C(O)=C1O', 'NO'),
  ('CCCCCCCCS(=O)C(C)Cc1ccc2c(c1)OCO2 (centres undefined)', 'NO'),
  ('Cn1cc(C(=O)[C@@H]2CCc3nc[nH]c3C2)c2ccccc21', 'NO'),
  ('CCN(C(=O)c1cc(C)cc(OC[C@H](C)Nc2ccncc2)c1)C(C)C', 'NO'),
  ('COc1ccc(CN2CCN(C(c3ccc(F)cc3)c3ccc(F)cc3)CC2)c(OC)c1OC', 'NO');

## Input Tell me the recorded outcome of this test for "C1CCCC1" .
## Output NO

## Input Tell me the recorded outcome of this test for "On1ccccc1=S" .
## Output NO

* * *

TARGET DESC: Cytochrome P450 2D6 (Homo sapiens)
ASSAY EXPLANATION: Cytochrome P450 Family 2 Subfamily D Member 6 (CYP2D6) small molecule antagonists: luciferase reporter qHTS assay (AID 1671196); also: nearly all actives have a fitted effect of over 50% in size; also: potency is read from the fitted curve at half-maximal effect
TEST SETTINGS: P450-Glo CYP2D6 enzyme assay, luciferin luminescence, 1 h; series mostly up to 115 µM
Records with an inconclusive call do not appear. The source made the active and inactive calls. The call rests on the fitted dose curve; in most records, active means well fitted inhibition curve with a large enough effect in the repeat runs; inconclusive means weak or mixed curves; inactive means no such curve, though single readings can be large or run the other way.
METRIC: Potency

Solved cases (10 shown):
INSERT INTO results (molecule, metric, test_value) VALUES
  ('CCCCN(CCCC)c1ccc(C(=O)c2ccccc2C(=O)O)c(O)c1', 'Potency', 'inactive'),
  ('Oc1ccc(Cl)cc1Sc1cc(Cl)ccc1O', 'Potency', 'inactive'),
  ('O=C1c2ccccc2Cc2ccccc21', 'Potency', 'inactive'),
  ('Oc1cc2ccccc2c2ccccc12', 'Potency', '2.24 µM (active)'),
  ('C=CC(=O)OCCn1c(=O)n(CCOC(=O)C=C)c(=O)n(CCOC(=O)C=C)c1=O', 'Potency', 'inactive'),
  ('CCCCCCCCCCCCc1ccc(O)cc1', 'Potency', 'inactive'),
  ('CCCCN1C(=O)[C@@H]([C@H](O)C2CCCCC2)NC(=O)C12CCN(Cc1ccc(Oc3ccc(C(=O)O)cc3)cc1)CC2', 'Potency', 'inactive'),
  ('NC(=O)CC[C@@H]1NC(=O)[C@H](Cc2ccccc2)NC(=O)[C@H](Cc2ccc(O)cc2)NC(=O)CCSSC[C@@H](C(=O)N2CCC[C@H]2C(=O)N[C@@H](CCCN=C(N)N)C(=O)NCC(N)=O)NC(=O)[C@H](CC(N)=O)NC1=O', 'Potency', 'inactive'),
  ('CCCC(C)c1ccccc1O (stereo unspecified)', 'Potency', 'inactive'),
  ('Cc1cc(N)c(S(=O)(=O)O)cc1Cl', 'Potency', 'inactive');

Note to self: Potency recorded for Cc1cccc(CN2CCN(C(c3ccccc3)c3ccc(Cl)cc3)CC2)c1 (stereo unspecified) was 3.09 µM (active)

Note to self: Potency recorded for "COc1cc(-c2ccc(N=C=O)c(OC)c2)ccc1N=C=O" was inactive

Note to self: Potency recorded for "C[C@@H](NCCCc1cccc(C(F)(F)F)c1)c1cccc2ccccc12" was 0.0389 µM (active)

Note to self: Potency recorded for "Cc1ccc(-n2nc(C(C)(C)C)cc2NC(=O)Nc2ccc(OCCN3CCOCC3)c3ccccc23)cc1" was 15.5 µM (active)

Note to self: Potency recorded for CC(C)(C)C(=O)OCOC(=O)C1N2C(=O)CC2S(=O)(=O)C1(C)C (stereo unspecified) was inactive

Note to self: Potency recorded for "Cc1cc(C2CCCCC2)n(O)c(=O)c1" was inactive

Note to self: Potency recorded for "N#CC1(c2ccc(F)cc2)CCC(=O)CC1" was inactive

Note to self: Potency recorded for CC(C)OC(=O)c1cc2c(OCC(O)CNC(C)(C)C)cccc2[nH]1 (stereo unspecified) was 13.8 µM (active)

Note to self: Potency recorded for "Cc1cc(CCN2CCN(c3nsc4ccccc34)CC2)cc2c1NC(=O)CC2(C)C" was 17.8 µM (active)

Note to self: Potency recorded for "CCC1=C[C@@H]2CN(C1)Cc1c([nH]c3ccccc13)[C@@](C(=O)OC)(c1cc3c(cc1OC)N(C)[C@H]1[C@@](O)(C(=O)OC)[C@H](OC(C)=O)[C@]4(CC)C=CCN5CC[C@]31[C@@H]54)C2" was inactive

Note to self: Potency recorded for "OCCCCCCCCCCCCBr" was inactive

* * *

TARGET DESC: Nuclear receptor subfamily 1 group I member 3 (Homo sapiens) (UniProt Q14994)
Sequence (Q14994 whole entry, looked up): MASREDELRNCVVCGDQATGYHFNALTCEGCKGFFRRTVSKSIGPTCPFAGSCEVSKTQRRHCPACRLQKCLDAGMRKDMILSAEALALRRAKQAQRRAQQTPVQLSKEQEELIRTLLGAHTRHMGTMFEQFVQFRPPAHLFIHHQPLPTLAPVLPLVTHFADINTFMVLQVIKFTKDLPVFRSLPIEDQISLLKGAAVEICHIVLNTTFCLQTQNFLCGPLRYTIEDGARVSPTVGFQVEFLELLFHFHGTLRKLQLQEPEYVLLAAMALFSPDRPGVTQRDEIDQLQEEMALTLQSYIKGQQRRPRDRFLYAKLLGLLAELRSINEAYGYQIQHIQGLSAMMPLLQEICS
ASSAY EXPLANATION: qHTS assay to identify small molecule antagonists of the constitutive androstane receptor (CAR) signaling pathway (AID 1224838);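 also: HepG2 cells stably expressing hCAR with CYP2B6 luciferase reporter stimulated by CITCO; nearly all actives have a fitted effect of over 40% in size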
TEST SETTINGS: HepG2-CYP2B6-hCAR luciferase, CITCO-stimulated, 24 h; series mostly up to 92.4 µM
Results filed as inconclusive are left out. Active and inactive are the calls of the source. The call rests on the fitted dose curve; in most records, active means well fitted inhibition curve with a large enough effect in the repeat runs; inconclusive means weak or mixed curves, or effect the other way; inactive means no such curve, though single readings can be large or run the other way.
Pick one: yes = active, no = inactive

Reference set, count: 5
INSERT INTO measurements (molecule, assigned_category) VALUES
  ('COC(=O)c1cc(Cl)ccc1OC', 'no'),
  ('CCc1cc(Cc2cc(CC)cc(C(C)(C)C)c2O)c(O)c(C(C)(C)C)c1', 'yes'),
  ('O=C(O)c1cc(O)c2c(c1)C(=O)c1cccc(O)c1C2=O', 'no'),
  ('CCN(C(=O)c1cc(C)cc(OC[C@H](C)Nc2ccncc2)c1)C(C)C', 'no'),
  ('Oc1ccc2cc(SSc3ccc4cc(O)ccc4c3)ccc2c1', 'no');

## Input Tell me the recorded outcome of this test for CCCC(C)c1ccccc1O (stereo unspecified) .
## Output no

* * *

ASSAY EXPLANATION: qHTS RealTime-Glo MT Cell Viability Assay in HEK293 cells - 24 hour (AID 1224886); also: nearly all actives have a fitted effect of over 50% in size
TEST SETTINGS: RealTime-Glo luminescence; series mostly up to 76.8 µM
Results filed as inconclusive are left out. Calls of active or inactive are those of the source. The call rests on the fitted dose curve; in most records, active means well fitted cell-killing curve with a large enough effect in the repeat runs; inconclusive means weak or mixed curves, or effect the other way; inactive means flat fitted curve, though single readings scatter.
Pick one: class 1 (active), class 0 (inactive)

Reference set, count: 2
INSERT INTO results (molecule, assigned_category) VALUES
  ('CS(=O)(=O)CCNCc1ccc(-c2ccc3ncnc(Nc4ccc(OCc5cccc(F)c5)c(Cl)c4)c3c2)o1', 'class 1'),
  ('Cc1cc(O)c(Cl)c(C)c1Cl', 'class 0');

## Input Tell me the recorded outcome of this test for "C[C@H](CCC(=O)O)[C@H]1CC[C@H]2[C@@H]3CC[C@@H]4C[C@H](O)CC[C@]4(C)[C@H]3CC[C@]12C" .
## Output class 0

## Input Tell me the recorded outcome of this test for "CC(=O)N1CCN(c2ccc(OC[C@H]3CO[C@](Cn4ccnc4)(c4ccc(Cl)cc4Cl)O3)cc2)CC1" .
## Output class 1

## Input Tell me the recorded outcome of this test for CCN(CC)CCCC(C)Nc1c2ccc(Cl)cc2nc2ccc(OC)cc12 (configuration not stated) .
## Output class 1

## Input Tell me the recorded outcome of this test for CCC(Cl)C(Cl)C(Cl)CC(Cl)C(Cl)C(C)Cl (configuration not stated) .
## Output class 0

## Input Tell me the recorded outcome of this test for "COC(=O)c1cc(Cl)ccc1OC" .
## Output class 0

## Input Tell me the recorded outcome of this test for "CCCCN(CCCC)C(=O)N(CCCC)CCCC" .
## Output class 0

## Input Tell me the recorded outcome of this test for "Oc1cccc2cc3cccc(O)c3c(O)c12" .
## Output class 0
